- System: P388
- assay-name: Cytotoxicity against mouse P388 cells
- Format: functional, cell-based
outcome-measure: IC50

molecule | measurement
CO[C@H]1O[C@@H]2CCC3=C[C@@H](O)C[C@H](C)[C@@]3(C)[C@H]2[C@@H]1C [ARMATIN C] | > 50 µM
CO[C@@H]1O[C@H]2CCC3=CC(=O)C[C@H](C)[C@@]3(C)[C@H]2[C@@H]1C [ARMATIN E] | > 50 µM
CO[C@@H]1O[C@H]2CCC3=C[C@@H](O)C[C@H](C)[C@@]3(C)[C@H]2[C@@H]1C [ARMATIN D] | > 50 µM
